melting point values by entry

molecule="CC(=O)Nc1nc(-c2cccc(C)c2)c(-c2cc(C)nc(C)c2)s1 [H 40-2]" recorded_value="185 to 187 °C"
molecule="CCC(=O)Nc1nc(-c2cc(C)cc(C)c2)c(-c2ccncc2)s1 [23-194]" recorded_value="291 to 293 °C"
molecule="CCc1nc(-c2ccc(F)cc2)c(-c2ccnc(NC(=O)Cc3ccccc3)c2)s1 [L 68-7]" recorded_value="178 to 179 °C"

Query: State its melting point for this molecule: Cc1cccc(-c2nc(NC(=O)c3ccc(C)nc3)sc2-c2ccnc(C)c2)c1 [H 45]
Response: 233 to 234 °C

Query: Fill in melting point for record CCc1nc(-c2cccs2)c(-c2ccnc(NC(=O)c3ccccc3)c2)s1 [L 70-4]
Response: 116 to 117 °C

Query: Find the measured melting point of CCc1nc(-c2cccc(C)c2)c(-c2ccnc(NC(=O)C3CCCC3)c2)s1 [H 29-1] and report it.
Response: 123 to 125 °C

Query: Query melting point for Cc1cccc(-c2nc(N(C)C(=O)c3cccnc3)sc2-c2ccnc(NC3CCCC3)c2)c1 [L 65-3]
Response: 150 to 151 °C

Query: Please list melting point recorded for the molecule CC(=O)Nc1cc(-c2sc(C(C)OC(=O)c3ccccc3)nc2-c2cccc(Cl)c2)ccn1 (stereo not drawn) [H 103-1]
Response: 152 to 154 °C

Data provenance is patent US20050080113A1.
